Ref: ChEMBL document CHEMBL3734714

Run Description: Cytostatic activity against human HCT116 cells after 3 days by MTT assay
Format: functional, cell-based
Details: HCT-116, 72 h
Entries and their pIC50 values follow.
Worth noting: pIC50 values are minus log10 of concentrations stated in mol/L.

# count of solved cases: 6
INSERT INTO measurements (smiles_text, result_value) VALUES
  ('CNc1ncnc2[nH]cc(Sc3cccs3)c12', 4.72),
  ('Cc1ncnc2[nH]cc(Sc3cccs3)c12', 4.42),
  ('COc1ncnc2[nH]cc(Sc3cccs3)c12', 4.77),
  ('Nc1ncnc2c1c(Sc1ccccc1)cn2[C@@H]1O[C@H](CO)[C@@H](O)[C@H]1O', 4.68),
  ('c1csc(Sc2c[nH]c3ncnc(-c4cccs4)c23)c1', 4.89),
  ('CN(C)c1ncnc2[nH]cc(Sc3cccs3)c12', 4.96);

Exercise: Entry `Nc1ncnc2[nH]cc(Sc3cccs3)c12` : reported pIC50 = ?
Solution: 4.64

Exercise: Suppose we examine the compound `c1coc(-c2ncnc3[nH]cc(Sc4cccs4)c23)c1` ; what pIC50 value has been reported?
Solution: 5.17

Exercise: What measured pIC50 goes with `Nc1ncnc2c1c(Sc1cccs1)cn2[C@@H]1O[C@H](CO)[C@@H](O)[C@H]1O` ?
Solution: 4.44

----------
IC50 values by entry
Tested on: A549
Run Description: Cytostatic activity against human A549 cells after 3 days by MTT assay
Assay type: functional, cell-based
Details: A549, 72 h

INSERT INTO results (smiles_text, result_value) VALUES
  ('c1coc(-c2ncnc3[nH]cc(Sc4cccs4)c23)c1', '11.4 µM'),
  ('c1csc(Sc2c[nH]c3ncnc(-c4cccs4)c23)c1', '16.2 µM'),
  ('CN(C)c1ncnc2[nH]cc(Sc3cccs3)c12', '19.8 µM'),
  ('Nc1ncnc2[nH]cc(Sc3cccs3)c12', '22.8 µM'),
  ('Nc1ncnc2c1c(Sc1cccs1)cn2[C@@H]1O[C@H](CO)[C@@H](O)[C@H]1O', '43.8 µM');

API: the following record is the query input.
Exercise: What IC50 value was documented for this compound, `Cc1ncnc2[nH]cc(Sc3cccs3)c12` ?
Solution: > 50 µM

----------
System: A549
Run Description: Cytostatic activity against human A549 cells after 3 days by MTT assay
Type: functional, cell-based
Details: A549, 72 h
# key: entry, value: IC50
Give the value, in units of µM, as a plain number.

Examples with their reported IC50 follow.
INSERT INTO results (smiles_text, assay_metric, result_unit, result_value) VALUES
  ('Nc1ncnc2c1c(Sc1ccccc1)cn2[C@@H]1O[C@H](CO)[C@@H](O)[C@H]1O', 'IC50', 'µM', 22.9),
  ('COc1ncnc2[nH]cc(Sc3cccs3)c12', 'IC50', 'µM', 21.5);

Okay, now this compound:
Exercise: Hello, I am looking for reported IC50 with A549 for `CNc1ncnc2[nH]cc(Sc3cccs3)c12` . Could you help?
Solution: 28.6

----------
Tested on: MRC5
Run Description: Cytostatic activity against human MRC5 cells after 3 days by MTT assay
Type: ADME, cell-based
Details: MRC5, 72 h
pIC50: −log10 of the molar value.
Outcome label depends on pIC50 relative to 4: at/above gives satisfied, below gives not satisfied.

Answered examples (8):
INSERT INTO measurements (smiles_text, class_assignment) VALUES
  ('COc1ncnc2[nH]cc(Sc3cccs3)c12', 'not satisfied'),
  ('c1csc(Sc2c[nH]c3ncnc(-c4cccs4)c23)c1', 'satisfied'),
  ('Nc1ncnc2c1c(Sc1ccccc1)cn2[C@@H]1O[C@H](CO)[C@@H](O)[C@H]1O', 'satisfied'),
  ('Nc1ncnc2[nH]cc(Sc3cccs3)c12', 'not satisfied'),
  ('CN(C)c1ncnc2[nH]cc(Sc3cccs3)c12', 'not satisfied'),
  ('Nc1ncnc2c1c(Sc1cccs1)cn2[C@@H]1O[C@H](CO)[C@@H](O)[C@H]1O', 'not satisfied'),
  ('CNc1ncnc2[nH]cc(Sc3cccs3)c12', 'not satisfied'),
  ('c1coc(-c2ncnc3[nH]cc(Sc4cccs4)c23)c1', 'satisfied');

Exercise: Item `Cc1ncnc2[nH]cc(Sc3cccs3)c12` with pIC50 of 4 or above?
Solution: not satisfied
